These measurements were taken from patent US12187746B2.

Test system: P-4E-BP1 (T37/46)
Assay: Cell based AlphaLISA assay, inhibition of P-4E-BP1 (T37/46) in MDA-MB-468 cells
Conditions: Homo sapiens, 4 h, 0.017-1,000 nM, two to four hours at 37° C., AlphaLisa SureFire Ultra, read-out: pIC50 for Inhibition of mTORC1 and mTORC2 Substrate Phosphorylation, p-4E-BP1-(T37/46) (converted)
experimental.readout: IC50

**Q:** Provide only the value of recorded IC50 for "CO[C@H]1C[C@@H]2CC[C@@H](C)[C@@](O)(O2)C(=O)C(=O)N2CCCC[C@H]2C(=O)O[C@H]([C@H](C)C[C@@H]2CC[C@@H](O)[C@H](OC)C2)C[C@@H](O)[C@H](C)/C=C(\C)[C@@H](O)[C@@H](OC)C(=NOCC(=O)NCc2cnc(N3CCN(C(=O)CCCN4CCN(c5ncc(C(=O)N6CCc7cc(Cn8nc(-c9ccc%10oc(N)nc%10c9)c9c(N)ncnc98)ccc7C6)cn5)CC4)CC3)nc2)[C@H](C)C[C@H](C)/C=C/C=C/C=C/1C"
**A:** 3.16 to 31.6 nM
